Test system: MCF7
assay.summary: Antiproliferative activity against human MCF7 cells after 72 hrs by sulforhodamine B assay
Type: functional, cell-based
experimental.parameters: MCF7, 72 h
pIC50: −log10 of the molar value.
Decision: pIC50 >= 6 yields Yes, all other cases yield No.

1) Cc1c2c3cc(NC(=N)N)ccc3nc-2n(C)c2ccccc12.Cl.Cl :: Yes
2) Cc1c2ccccc2nc2c1c1cc(NC(=O)[C@@H]3CCCN3C(=N)N)ccc1n2CCN(C)C :: No
3) Cc1c2ccccc2nc2c1c1cc(NC(=O)CNC(=N)N)ccc1n2CCN(C)C :: No
4) Cc1c2c3cc(N)ccc3nc-2n(C)c2ccccc12 :: Yes
5) Cc1c2c3cc(NC(=O)CNC(=N)N)ccc3nc-2n(C)c2ccccc12.Cl.Cl.Cl :: No
